# System: Vero E6
# test_method_notes: cell viability relative to DMSO; higher = less toxic
# test_context: 72 h; 1000 nM
Field 'label' (enum: 1.0 / 0.0). Set to 1.0 when cell viability is strictly under 90%; else 0.0.

Worked cases, answers included:
{"columns": ["compound", "qualitative_label"],
 "data": [
  ["Cc1c[nH]c(=O)n(CCCN2CCN(c3ccccc3OCC(F)(F)F)CC2)c1=O", 0.0],
  ["CS(=O)(=O)c1cccc(CNc2nc(Nc3ccc4c(c3)CCC(=O)N4)ncc2C(F)(F)F)c1", 1.0],
  ["O=c1[nH]c(CCl)nc2sc3c(c12)CCCC3", 0.0],
  ["Nc1nc(-c2nn(Cc3ccccc3F)c3ncccc23)ncc1C1CC1 [BAY-41-2272]", 1.0],
  ["C=CC(=O)Nc1cc(Nc2nccc(-c3cn(C)c4ccccc34)n2)c(OC)cc1N(C)CCN(C)C [osimertinib]", 1.0]
]}

Let us examine a further case.
Item O=C1C(O)=C(O)C(=O)C(O)=C1O [tetroquinone] : cell viability beneath 90%, strictly?
0.0
